biological target: T1, human CXCR4 receptor (hCXCR4Rho1D4) (Homo sapiens, UniProt P61073); assay: hCXCR4-Nb co-expression in P. pastoris GS115; anti-Rho1D4 immunoblot of membrane protein, quantified by Odyssey software; type: cell-based; details: Table 3; anti-Rho1D4 immunoreactive hCXCR4 band; average of two independent experiments
T1 construct: expressed in transfected cells; host or cells: Pichia pastoris GS115
T1 sequence (P61073 with tags, fused parts or gaps isoform P61073-2): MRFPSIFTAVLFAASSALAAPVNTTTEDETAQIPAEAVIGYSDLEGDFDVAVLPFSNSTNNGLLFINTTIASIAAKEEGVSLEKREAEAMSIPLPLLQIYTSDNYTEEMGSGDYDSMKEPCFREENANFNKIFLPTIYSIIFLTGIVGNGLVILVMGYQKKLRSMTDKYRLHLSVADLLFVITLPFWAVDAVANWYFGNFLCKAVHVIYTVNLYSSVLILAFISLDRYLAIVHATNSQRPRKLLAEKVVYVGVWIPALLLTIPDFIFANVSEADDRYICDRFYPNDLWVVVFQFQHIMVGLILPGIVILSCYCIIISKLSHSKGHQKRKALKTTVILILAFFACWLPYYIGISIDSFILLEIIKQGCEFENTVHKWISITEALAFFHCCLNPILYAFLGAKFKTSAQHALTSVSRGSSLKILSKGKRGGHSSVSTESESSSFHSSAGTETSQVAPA
metric: Fluorescent units (fluorescent units)
Express it in fluorescent units; write the number only.

Enquiry: Input NbCA4143: Nanobody directed against the extracellular side of the human CXCR4 receptor, SEQ ID NO:3, His6 tag (protein, listed as Lama glama, His6 tag) VHH: QVQLQESGGGLVQPGGSLRLSCAASGFTFSSYAMSWVRQAPGKGLEWVSTINSGGRSANYADSVKGRLTISRDNAKNTLHLQMNSLKPEDTALYYCARPRSVSRNYVPLGYDYLGQGTQVTVSSHHHHHH , output reported Fluorescent units.
Return: 41.06

Enquiry: Dear colleague, please send me the reported Fluorescent units for NbCA4142: Nanobody directed against the extracellular side of the human CXCR4 receptor, SEQ ID NO:2, His6 tag (protein, listed as Lama glama, His6 tag) VHH: QVQLQESGGGLVRTGGSLRLSCAGSGSFFSINPMGWYRQAPGQQRELVATITGSGSTNYADSVKGRFTISRDNAKNTLYLQMNSLKPEDTAVYYCNAGYFDRIGRRYDRWGQGTQVTVSSHHHHHH when you can.
Return: 35.81

Enquiry: Report Fluorescent units, nothing else, for this molecule: NbCA4500: Nanobody directed against the extracellular side of the human CXCR4 receptor, SEQ ID NO:4, His6 tag (protein, listed as Lama glama, His6 tag) VHH: QVQLQESGGGLVQAGGSLRLSCAASGSTSGIIAMGWYRQAPGKQRELVARISSGSSTNYADSVKGRFTVSRDNAKNTVYLQMNSLKPEDTAVYYCNAVRRGYRNDYNSWGQGTQVTVSSHHHHHH
Return: 21.59

Enquiry: Identify measured Fluorescent units corresponding to NbCA4140: Nanobody directed against the extracellular side of the human CXCR4 receptor, SEQ ID NO:1, His6 tag (protein, listed as Lama glama, His6 tag) VHH: QVQLQESGGGLVQPGGSLRLSCAASGSIFSINAMGWYRQAPGKQRELVAAITSGGSTNYADSVKGRFTISRDNAENTVYLQMNNLKPEDTAVYSCNAEGTSGSSRYRRRYEYWGKGTQVTVSSHHHHHH
Return: 39.95
